biological target: Serine/threonine-protein kinase 16 (Homo sapiens); assay: ligand-induced STK16 melting temperature shift – biophysical, recombinant human kinase, DSF (AID 395); conditions: recombinant STK16, DSF thermal shift, SYPRO orange; at 10 µM; protein 2 µM; buffer 10 mM HEPES; pH 7.5; NaCl 150 mM; active compounds read high
observable: Tm shift

Requested read-out: Tm shift. Entry: O=C1NCc2c1c1c3ccccc3[nH]c1c1[nH]c3ccccc3c21
3.9 °C

Any idea what its Tm shift is? The molecule is Nc1cccc(-c2cc3c(Oc4cccc(O)c4)ncnc3[nH]2)c1
5.9 °C

Param item = N#C/C(=C1\Nc2ccccc2S1)c1ccnc(NCCc2cccnc2)n1 ; retrieve measured Tm shift.
5.5 °C

Item under review: Nc1nc(Nc2ccc(S(N)(=O)=O)cc2)nn1C(=S)Nc1c(F)cccc1F . Reported Tm shift?
7.8 °C

Entry O=C(Nc1cccc(Nc2nccc(Nc3cccc(C(F)(F)F)c3)n2)c1)C1CC1 has what Tm shift?
5.75 °C

Could you tell me which Tm shift is on file for NCCCn1cc(C2=C(c3c[nH]c4ccccc34)C(=O)NC2=O)c2ccccc21 ?
4.96 °C

# get_value(readout='Tm shift', item= O=c1c(O)c(-c2ccc(O)cc2)oc2cc(O)cc(O)c12 )
3.87 °C

Quick check: Tm shift of Cc1c(O)cc(O)c2c1OC(c1ccc(O)c(O)c1)C(=O)C2=O (stereo not given) ?
3.29 °C

Tell me the measured Tm shift of CC(O)O/N=C1/C(c2c(O)[nH]c3cc(Br)ccc23)=Nc2ccccc21 (stereo not given) , please.
4.2 °C

Could you tell me which Tm shift is on file for O=Nc1c(-c2c(O)[nH]c3ccc(I)cc23)[nH]c2ccccc12 ?
4.2 °C
